Test system: SR leukemia
Experiment: NCI tumour cell line growth inhibition, 48 h; in the data active = GI50 below about 0.43 µM; inactive = the rest
Labels: yes (1) for active, no (0) for inactive

* C=CC(=O)NCc1cccc(Nc2ncc(Br)c(NCCCNC(=O)C3CCC3)n2)c1 | yes (1)
* CN(Cc1cc(Br)cc(Br)c1O)Cc1cc(Br)cc(Br)c1O | no (0)
* C[C@H](Nc1ncnc2nc[nH]c12)c1cc2ccc(F)cc2nc1-c1ccccn1 | no (0)
* Cc1cc(O)ccc1C1=NN(c2ccc(S(C)(=O)=O)cc2)C(=O)CC1 | no (0)
* CCOC(=O)c1c(C)n2c(=O)cc(C)c3c(O)c(O)cc1c32 | no (0)
* C=C(C)[C@@H]1CC[C@]2(C(=O)O)CC[C@]3(C)[C@H](CC[C@@H]4[C@@]5(C)C[C@@H](CC#Cc6ccc(C(F)(F)F)cc6)[C@H](O)C(C)(C)[C@@H]5CC[C@]43C)[C@@H]12 | no (0)
* c1cc2[nH]ncc2cc1-c1nc2ccc3[nH]ncc3c2c2c1CCCC2 | yes (1)
* COc1ccc2[nH]cc([C@@H]3C4CCC(C4)[C@H]3NCc3cccc(CN[C@H]4C5CCC(C5)[C@@H]4c4c[nH]c5ccc(OC)cc45)c3)c2c1 | yes (1)
* COc1ccc(C(SCC(N)C(=O)O)(c2ccccc2)c2ccccc2)cc1 (stereo not given) | no (0)
* COC(=O)[C@]12CC[C@@H](C)[C@H](C)[C@@H]1C1=CC[C@@H]3[C@@]4(C)C(C=O)=C[C@@](C)(COC(C)=O)C4=CC[C@@]3(C)[C@]1(C)CC2 | no (0)
* CN(C)CCNC(=O)C(C)(C)Oc1ccc(C(=O)c2ccc(Cl)cc2)cc1Cl | no (0)
* COc1cc(-c2nc3ccccc3s2)ccc1NC(=O)COc1ccc(Cl)cc1 | no (0)
* NC(N)=N/N=C/c1c(-c2cc(Cl)sc2Cl)nc2sccn12 | no (0)
* CC(C)(C)C(=O)OCOP(=O)(OCOC(=O)C(C)(C)C)C1CC(O)N(O)C1=O (stereo not given) | no (0)
* CCOC(=O)CSC(=O)NCCCl | no (0)

----------
Tested on: 786-0 renal
Test: NCI tumour cell line growth inhibition, 48 h; in the data active = GI50 below about 0.43 µM; inactive = the rest
Labels: t (active), f (inactive)

* CS(=O)(=O)Nc1ccc(-c2cc(-c3ccccc3)cc(C(N)=O)c2N)cc1 | f
* O=C1Nc2c(C(F)(F)F)cccc2[C@@]1(c1ccc(O)cc1)c1ccc(OC(F)(F)F)cc1 | t
* COC(=O)[C@]12CC[C@@H](C)[C@H](C)[C@@H]1C1=CC[C@@H]3[C@@]4(C)C(C=O)=C[C@@](C)(COC(C)=O)C4=CC[C@@]3(C)[C@]1(C)CC2 | f
* CCCCCCCCCCCCCC1=NCCN1CCO | f
* Cc1ccc(C(SCC(N)C(=O)O)(c2ccc(C)cc2)c2ccc(C)cc2)cc1 (stereo not drawn) | f
* O=C(/C(=C\c1ccc([N+](=O)[O-])cc1)S(=O)Cc1ccc(F)cc1)c1ccc(F)cc1 (stereo not drawn) | f
* O=C(c1ccccc1)c1ccc(Oc2ccc([N+](=O)[O-])cc2[N+](=O)[O-])cc1 | f
* CC1COc2c(N3CCN(C)CC3)c(F)cc3c(=O)c(C(=O)O)cn1c23 (stereo not drawn) | f
* Cc1cc(O)ccc1C1=NN(c2ccc(S(C)(=O)=O)cc2)C(=O)CC1 | f
* C=C(C)[C@@H]1CC[C@]2(C(=O)O)CC[C@]3(C)[C@H](CC[C@@H]4[C@@]5(C)C[C@@H](CC#Cc6ccc(C(F)(F)F)cc6)[C@H](O)C(C)(C)[C@@H]5CC[C@]43C)[C@@H]12 | f
* Cl.Fc1c[c-]c(-c2ccccn2)c(F)c1.[Pt].c1ccc(P(c2ccccc2)C([PH+](c2ccccc2)c2ccccc2)[PH+](c2ccccc2)c2ccccc2)cc1 | f
* COc1cc2nc(SCC(=O)Nc3cc(OC)c(OC)c(OC)c3)n(Cc3ccccc3)c(=O)c2cc1OC | f
* COc1ccc2c(CN3CCC(C(=O)O)CC3)cc3cc4c(cc3c2c1)OCO4 | f
* Nc1nc2c(s1)CCc1c-2c(Br)n(Cc2ccccc2)c1Br | f
* COc1cc(-c2nc3ccccc3s2)ccc1NC(=O)COc1ccc(Cl)cc1 | f
* COC1CCN(C(=O)c2cc(Cc3n[nH]c(=O)c4ccccc34)ccc2F)CC1 | f
* O=C1C(=O)c2c(nc3ccc(Br)cn23)-c2ccccc21 | f
* Clc1cccc(Cl)c1C1CSc2ccccc2N=C1c1ccccc1 (stereo not drawn) | f
* CCN1C(=O)N(CC)C2Nn3c(s/c(=C\c4ccccc4Br)c3=O)=NC21 (stereo not drawn) | f
* O=C1c2ccccc2S(=O)(=O)N1CSC(=S)N1CCCCC1 | f
* Oc1ccc(O)c(-c2cn3ccsc3n2)c1 | f
* O=C(CN(/C=C/C(=O)C(F)(F)F)c1ccc(Cl)cc1)c1ccccc1 | f
* COc1ccc(C(=O)c2cc(OC)c(OC)c(OC)c2)cc1/C=C/C(=O)c1ccc(OC)c(OC)c1 | f

The measurements presented in this section are drawn from PubChem BioAssay (NCI).
